These entries and their values trace back to patent US5891882A.

Target: α-1A adrenoreceptor (rat submaxillary gland) (Rattus norvegicus, UniProt P43140)
Construct: Rat submaxillary glands were used for α-1A adrenoreceptors; from tissue; host or cells: rat submaxillary gland membranes
Sequence (P43140 1-466): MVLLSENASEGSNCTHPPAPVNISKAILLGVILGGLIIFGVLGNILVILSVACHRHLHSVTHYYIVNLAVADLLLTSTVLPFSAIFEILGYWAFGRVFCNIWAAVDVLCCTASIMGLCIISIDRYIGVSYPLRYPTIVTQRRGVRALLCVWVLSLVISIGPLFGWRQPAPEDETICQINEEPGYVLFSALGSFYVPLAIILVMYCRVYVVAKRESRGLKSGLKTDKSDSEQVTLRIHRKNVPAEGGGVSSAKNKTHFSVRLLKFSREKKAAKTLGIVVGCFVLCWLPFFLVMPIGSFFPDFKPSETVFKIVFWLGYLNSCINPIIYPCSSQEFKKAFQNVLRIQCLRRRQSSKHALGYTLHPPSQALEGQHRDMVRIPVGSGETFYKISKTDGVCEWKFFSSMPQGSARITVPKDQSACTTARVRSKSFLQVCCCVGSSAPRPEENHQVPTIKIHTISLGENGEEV
Test: In vitro [3H]-prazosin radioligand binding, pharmacologically defined α-1A adrenoreceptor (rat submaxillary gland)
Structures can show the parent of a compound that is named as a salt.
The entries below are paired with their reported pKi.
Units for pKi: none; it is -log10 of a concentration expressed in mol/L.

Examples with answers:
compound="COc1cc2[nH]c(=O)n(CCCCN3CC[C@H]4c5c(OC)cccc5OC[C@@H]4C3)c(=O)c2cc1OC (relative stereo) [Example 86, hydrochloride]" measured_parameter=pKi result_value=9.27
compound="COc1cc2[nH]c(=O)n(CCCCN3C[C@@H]4COc5cccc(OC)c5[C@H]4C3)c(=O)c2cc1OC (racemic) [Example 82, dihydrochloride]" measured_parameter=pKi result_value=9.24

Now for a further compound.
Any idea what pKi was measured for COc1cccc2c1[C@@H]1CCN(CCCn3c(=O)[nH]c4c(sc5ccccc54)c3=O)C[C@H]1CO2 (relative stereo) [Example 89, hydrochloride] ?
9.88
